Taken from the NIST ThermoML archive (doi:10.1021/je900672g).

Assay: isobaric coefficient of expansion
Settings: 298.15 K; 5000 kPa; Liquid; DSC
Would you mind telling me the reported isobaric coefficient of expansion of each entry?

Which isobaric coefficient of expansion value is on record for CC[N+](=O)[O-] ?
0.00115 1/K

Which isobaric coefficient of expansion value is on record for N#Cc1ccccc1 ?
0.000849 1/K

Which isobaric coefficient of expansion value is on record for CCC[N+](=O)[O-] ?
0.00108 1/K

Which isobaric coefficient of expansion value is on record for CCC#N ?
0.00128 1/K

Which isobaric coefficient of expansion value is on record for O=[N+]([O-])c1ccccc1 ?
0.000823 1/K

Which isobaric coefficient of expansion value is on record for C[N+](=O)[O-] ?
0.00121 1/K
